FYI, the data here is from ChEMBL document CHEMBL2384915.

system: PC-3; experiment: Cytotoxicity against human p53 deficient PC3 cells after 72 hrs by SRB assay; assay type: functional, cell-based; settings: PC-3, 72 h
quantity: IC50 (µM)

1) Nc1sc(-c2ccccc2)c(-c2ccc(Cl)cc2)c1C(=O)N1CCCC1 22.2
2) COC(=O)c1c(N)sc(-c2ccc(Cl)cc2)c1-c1ccc(Cl)cc1 2.78
3) Nc1sc(-c2ccc(Cl)cc2)c(-c2ccc(Cl)cc2)c1C(=S)NC1CC1 22.1
4) Nc1sc(-c2ccc(Cl)cc2)c(-c2ccc(Cl)cc2)c1C(=O)NC1CCCCC1 7.3

* * *

Recorded Ki values for a group of molecules are listed next.
target: Tumour suppressor p53/oncoprotein Mdm2 (Homo sapiens); assay: Inhibition of p53/MDM2 (1 to 118) (unknown origin) interaction after 1 hr by fluorescence polarization assay
Sequence (P04637 whole entry): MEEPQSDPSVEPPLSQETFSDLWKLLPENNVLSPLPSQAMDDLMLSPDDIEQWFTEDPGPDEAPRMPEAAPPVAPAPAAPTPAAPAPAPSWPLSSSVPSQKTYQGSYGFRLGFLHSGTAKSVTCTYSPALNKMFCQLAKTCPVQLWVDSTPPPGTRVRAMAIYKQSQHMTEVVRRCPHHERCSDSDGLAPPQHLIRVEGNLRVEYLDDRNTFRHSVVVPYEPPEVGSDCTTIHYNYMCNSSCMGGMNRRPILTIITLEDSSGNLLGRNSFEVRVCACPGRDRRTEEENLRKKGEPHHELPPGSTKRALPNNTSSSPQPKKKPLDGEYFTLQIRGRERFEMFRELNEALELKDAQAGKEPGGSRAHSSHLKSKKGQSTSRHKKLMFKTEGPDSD
Sequence (Q00987 whole entry): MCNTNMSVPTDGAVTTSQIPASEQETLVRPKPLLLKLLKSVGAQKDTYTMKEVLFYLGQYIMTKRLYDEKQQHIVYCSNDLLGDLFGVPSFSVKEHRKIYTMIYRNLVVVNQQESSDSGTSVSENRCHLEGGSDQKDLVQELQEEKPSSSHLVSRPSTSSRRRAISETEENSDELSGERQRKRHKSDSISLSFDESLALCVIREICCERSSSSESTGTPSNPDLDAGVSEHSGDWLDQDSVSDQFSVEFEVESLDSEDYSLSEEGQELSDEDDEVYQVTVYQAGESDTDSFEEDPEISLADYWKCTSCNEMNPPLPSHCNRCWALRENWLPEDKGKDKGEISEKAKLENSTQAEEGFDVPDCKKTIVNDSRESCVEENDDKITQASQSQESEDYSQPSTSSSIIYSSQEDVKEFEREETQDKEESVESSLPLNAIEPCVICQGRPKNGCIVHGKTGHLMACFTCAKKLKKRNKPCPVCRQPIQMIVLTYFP
quantity: Ki (nM)

1. Nc1sc(-c2ccccc2)c(-c2ccc(Cl)cc2)c1C(=O)N1CCCC1 1960
2. Nc1sc(-c2ccc(Cl)cc2)c(-c2ccc(Cl)cc2)c1C(=S)NC1CC1 86
3. Nc1sc(-c2ccc(F)cc2)c(-c2ccc(Cl)cc2)c1C(=O)NC1CC1 340
4. Nc1sc(-c2ccc(Br)cc2)c(-c2ccc(Cl)cc2)c1C(=O)N1CCCC1 750
5. CC(C)(C)NC(=S)c1c(N)sc(-c2ccc(Cl)cc2)c1-c1ccc(Cl)cc1 580
6. Nc1sc(-c2ccc(Br)cc2)c(-c2ccc(Cl)cc2)c1C(=O)NC1CCCCC1 1060
7. Nc1sc(-c2ccc(Br)cc2)c(-c2ccc(Cl)cc2)c1C(=O)NCc1ccccc1 760
8. Nc1sc(-c2ccc(F)cc2)c(-c2ccc(Cl)cc2)c1C(=O)N1CCCC1 1220
9. Nc1sc(-c2ccc(F)cc2)c(-c2ccc(Cl)cc2)c1C(=O)NCc1ccccc1 600
10. Nc1sc(-c2ccc(Cl)cc2)c(-c2ccc(Cl)cc2)c1C(=S)NC1CCCCC1 320
11. CCOC(=O)c1c(N)[nH]c(-c2ccc(Cl)cc2)c1-c1ccc(Cl)cc1 1240
12. Nc1sc(-c2ccc(Br)cc2)c(-c2ccc(Cl)cc2)c1C(=O)N1CCOCC1 1480
13. Nc1[nH]c(-c2ccc(Cl)cc2)c(-c2ccc(Cl)cc2)c1C(=O)NC1CC1 530
14. Nc1sc(-c2ccccc2)c(-c2ccc(Cl)cc2)c1C(=O)NCc1ccccc1 1140
15. Nc1sc(-c2ccccc2)c(-c2ccc(Cl)cc2)c1C(=O)NC1CC1 630
16. Nc1sc(-c2ccccc2)c(-c2ccc(Cl)cc2)c1C(=O)N1CCOCC1 280
17. Nc1sc(-c2ccc(Br)cc2)c(-c2ccc(Cl)cc2)c1C(=O)NC1CC1 2180
18. Nc1sc(-c2ccc(F)cc2)c(-c2ccc(Cl)cc2)c1C(=O)N1CCOCC1 220
